# Measurement Target: Neuraminidase (Influenza A virus) (UniProt B4URF0)
# Sequence (B4URF0 as listed by the source): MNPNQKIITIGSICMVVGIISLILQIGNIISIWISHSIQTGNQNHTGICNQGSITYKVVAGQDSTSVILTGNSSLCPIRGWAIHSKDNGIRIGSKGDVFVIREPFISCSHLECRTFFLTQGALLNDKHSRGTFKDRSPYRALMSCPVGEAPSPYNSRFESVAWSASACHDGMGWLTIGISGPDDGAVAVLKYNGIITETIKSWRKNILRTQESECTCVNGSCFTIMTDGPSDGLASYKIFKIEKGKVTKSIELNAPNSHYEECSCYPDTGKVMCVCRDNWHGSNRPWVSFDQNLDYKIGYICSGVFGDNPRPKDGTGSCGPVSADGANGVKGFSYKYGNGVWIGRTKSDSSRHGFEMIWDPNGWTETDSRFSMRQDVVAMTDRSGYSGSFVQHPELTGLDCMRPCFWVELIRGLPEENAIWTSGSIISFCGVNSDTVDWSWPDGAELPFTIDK
# Particulars: A/Anhui/2005(H5N1), at 1 µM
Endpoint: inhibition (%)
Please give a number only; it is taken to be in %.

Prompt: Give inhibition for the following compound: CCC(C)C[C@@H](NC(=O)C1=C[C@@H](OC(CC)CC)[C@H](NC(C)=O)[C@@H](N)C1)C(=O)OC (some centres not stated)
Response: 23.6

Prompt: Consider the compound CCC(CC)O[C@@H]1C=C(C(=O)N[C@H](CC(C)C)C(=O)OC)C[C@H](N)[C@H]1NC(C)=O . State its measured inhibition.
Response: 13.1

More entries:
Prompt: Note inhibition for the compound shown: CCC(CC)O[C@@H]1C=C(C(=O)N[C@H](Cc2ccccc2)C(=O)O)C[C@H](N)[C@H]1NC(C)=O
Response: 21.1

Prompt: Give the reported inhibition for this compound. CCC(CC)O[C@@H]1C=C(C(=O)N[C@@H](CC(=O)OC)c2ccccc2)C[C@H](N)[C@H]1NC(C)=O
Response: 26.5

Prompt: Identify inhibition associated with the compound CCC(CC)O[C@@H]1C=C(C(=O)N[C@@H](C(=O)O)C(C)C)C[C@H](N)[C@H]1NC(C)=O
Response: 57.6

====

# Measurement Target: Neuraminidase (Influenza A virus) (UniProt B4URF0)
# Particulars: A/Anhui/2005(H5N1), at 10 µM
Each entry below lists one item and its recorded inhibition value.
Write the answer as a number in %, unit excluded.

Prompt: Return inhibition for the following compound: CCC(CC)O[C@@H]1C=C(C(=O)N[C@H](Cc2ccccc2)C(=O)O)C[C@H](N)[C@H]1NC(C)=O
Response: 80.4

Prompt: In one line, give reported inhibition of the entry CCC(CC)O[C@@H]1C=C(C(=O)NCCCc2ccccc2)C[C@H](N)[C@H]1NC(C)=O .
Response: 19.3

Prompt: Give the reported value of inhibition for this record: CCC(CC)O[C@@H]1C=C(C(=O)N[C@@H](CC(=O)OC)c2ccccc2)C[C@H](N)[C@H]1NC(C)=O
Response: 56.7

Then there is this compound:
Prompt: Query inhibition for CCC(CC)O[C@@H]1C=C(C(=O)N[C@@H](C(=O)O)C(C)C)C[C@H](N)[C@H]1NC(C)=O
Response: 91.4

====

# Method: Octanol-phosphate buffered saline partition coefficient, log D of compound at pH 7.6 at 1 mg after 24 hrs by HPLC analysis
# Format: physicochemical
Endpoint: logD at 24 h
Answer with a number only.

Prompt: Annotate the molecule CCC(CC)O[C@@H]1C=C(C(=O)N[C@@H](C(=O)O)C(C)(C)C)C[C@H](N)[C@H]1NC(C)=O with its measured logD at 24 h.
Response: -0.209

====

# Measurement Target: Neuraminidase (Influenza A virus, UniProt B4URF0)
Endpoint: IC50 (µM)
Response body: numeric value in µM, unit text excluded.

Prompt: Write down measured IC50 (Neuraminidase (Influenza A virus, UniProt B4URF0)) for this compound. CCC(CC)O[C@@H]1C=C(C(=O)N[C@H](CC(C)C)C(=O)O)C[C@H](N)[C@H]1NC(C)=O
Response: 6.55

Prompt: Please report IC50 with Neuraminidase (Influenza A virus, UniProt B4URF0) for item CCC(CC)O[C@@H]1C=C(C(=O)N[C@@H](C(=O)O)C2CC2)C[C@H](N)[C@H]1NC(C)=O .
Response: 46.4

Prompt: Give measured IC50 for CCCC[C@@H](NC(=O)C1=C[C@@H](OC(CC)CC)[C@H](NC(C)=O)[C@@H](N)C1)C(=O)O (Neuraminidase (Influenza A virus, UniProt B4URF0)).
Response: 30.7

Prompt: Lab note: record IC50 of CCC(CC)O[C@@H]1C=C(C(=O)N[C@@H](C(=O)O)C(C)C)C[C@H](N)[C@H]1NC(C)=O tested on Neuraminidase (Influenza A virus, UniProt B4URF0).
Response: 4.18

Prompt: Lab note: Neuraminidase (Influenza A virus, UniProt B4URF0) assay, enter IC50 for CCC(CC)O[C@@H]1C=C(C(=O)N[C@@H](C(=O)O)C(C)(C)C)C[C@H](N)[C@H]1NC(C)=O here
Response: 1.3

Further cases:
Prompt: Output reported IC50 of the compound CCC(CC)O[C@@H]1C=C(C(=O)N[C@H](C)C(=O)O)C[C@H](N)[C@H]1NC(C)=O on Neuraminidase (Influenza A virus, UniProt B4URF0).
Response: 24.4

Prompt: Under Neuraminidase (Influenza A virus, UniProt B4URF0): report IC50 of CCC(CC)O[C@@H]1C=C(C(=O)N[C@H](Cc2ccccc2)C(=O)O)C[C@H](N)[C@H]1NC(C)=O .
Response: 21.9
